MEASUREMENT_PROTOCOL: yeast display, Sf9 membrane polyspecificity reagent, FACS + sequencing; frameworks hold sequencing errors
MEASURED_PARAMETER: polyreactivity (PSR sort gate)

Please review the entries below; each comes with its answer.
QVQLVESGGGLVQAGGSLRLSCSATGNTLDVNARGWYRQAPGKERELVAAITSGGSTNYADSVKVRFTISRDNAKNTVYLQMNSLKPEDTAVYYCAATAALGRPEYYWGQGSQVTVSS ... low polyreactivity
QVQLVESGGGLVQAGGSLRLSCAASGFIFRYYAMGWYRQAPGKERELVAGITRTGGRTYYADSVKGRFTISRDNAKNTVYLQMNSLKPEDTAVYYCAADQYSRWRTKEAFSEYGFDYWGQGTQVTVSS ... high polyreactivity
QVQLVESGGGLVQAGGSLRLSCAASGRTFAVYAMGWYRQAPGKERELVAAITFGGGRTYYADSVKGRFTISRDNAKITVYLQMNSLKPEDTAVYYCAADYYGTDYDYRGQGTQVTVSS ... low polyreactivity
QVQLVESGGGLVQAGGSLRLSCAASGRTFYLYTMGWYRQAPGKERELVAGISWSGGSTYADSVKGRFTISRDNAKNTVYLQMNSLKPEDTAVYYCAAEVYYGYDYWGQGTQVTVSS ... low polyreactivity

# evaluate next
Input line: Recorded polyreactivity (PSR sort gate) of QVQLVESGGGLVQAGGSLRLSCAASGRIFRYYAMGWYRQAPGKERELVAVINWSGGSTYYADSVKGRFTISRDNAKNTVYFQMNSLKPEDTAVYYCNVYSVYPQFNYWGQGTQVTVSS , please.
Output line: high polyreactivity
